Where these numbers come from: patent US10258603B2

Give pIC50 for every item shown.
# assayed.system: CECR2 (Homo sapiens, UniProt Q9BXF3)
# Construct: 424-538 was cloned, expressed, and purified to homogeneity; Flag; made in house
# Sequence (Q9BXF3 424-538 limits assumed): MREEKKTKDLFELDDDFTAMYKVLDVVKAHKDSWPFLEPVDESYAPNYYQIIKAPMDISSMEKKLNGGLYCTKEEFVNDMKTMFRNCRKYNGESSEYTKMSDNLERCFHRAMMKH
# assay.details: CECR2 TR-FRET Binding Assay
# condition.label: read-out: IC50
Reminder that pIC50 means the negative base-10 logarithm of the concentration expressed in mol/L.

Incoming: What measured pIC50 is associated with C=CCn1cc(C(=O)N(C)C2CCCc3ccccc32)c2cc(C)[nH]c2c1=O (centres unmarked) [Example 275] on CECR2 (Homo sapiens, UniProt Q9BXF3)?
Outgoing: 6.96

Incoming: Same read-out for CC1CCCN(C2CCN(C(=O)c3cn(C)c(=O)c4[nH]ccc34)CC2)C1 (centres unmarked) [Example 67] ?
Outgoing: 5.74

Incoming: Same read-out for CN(CCC1CCN(C2CCC2)CC1)C(=O)c1cn(C)c(=O)c2[nH]ccc12 [Example 184] ?
Outgoing: 6.33

Incoming: Same read-out for CN(C(=O)c1cn(C)c(=O)c2[nH]ccc12)C1CCN(CCc2ccc(Cl)cc2)CC1 [Example 254] ?
Outgoing: 6.15

Incoming: Same read-out for CC(C)N1CC[C@@H](NC(=O)c2cn(C)c(=O)c3[nH]ccc23)[C@H](C)C1 (relative stereo) [Example 239] ?
Outgoing: 5.64

Incoming: Same read-out for Cn1cc(C(=O)N2CCC(C(C)(C)O)CC2)c2cc[nH]c2c1=O [Example 68] ?
Outgoing: 5.52

Incoming: Same read-out for CN(CC1CCN(C2CC2)CC1)C(=O)c1cn(C)c(=O)c2[nH]ccc12 [Example 192] ?
Outgoing: 5.85

Incoming: Same read-out for CN(CC1CCN(C2CCCC2)CC1)C(=O)c1cn(C)c(=O)c2[nH]ccc12 [Example 205] ?
Outgoing: 6.15

Incoming: Same read-out for C=CCn1cc(C(=O)N(C)C2CCC(C)(C)c3ccccc32)c2cc(C)[nH]c2c1=O (single isomer, unassigned) [Example 280] ?
Outgoing: 7.31

Incoming: Same read-out for CC(C)N1CCC(CN(C)C(=O)c2cn(C)c(=O)c3[nH]ccc23)C1 (centres unmarked) [Example 23] ?
Outgoing: 5.68

Incoming: Same read-out for Cn1cc(C(=O)Nc2cccc(CN3CCOCC3)c2)c2cc[nH]c2c1=O [Example 113] ?
Outgoing: 6.51

Incoming: Same read-out for CN(CC1CCN(C2CCC2)CC1)C(=O)c1cn(C)c(=O)c2[nH]ccc12 [Example 189] ?
Outgoing: 6.00

Incoming: Same read-out for CN(C(=O)c1cn(C)c(=O)c2[nH]ccc12)C1CCN(Cc2cccc(C#N)c2)CC1 [Example 220] ?
Outgoing: 5.96

Incoming: Same read-out for CN(CC1CCN(CC2CCOCC2)CC1)C(=O)c1cn(C)c(=O)c2[nH]ccc12 [Example 234] ?
Outgoing: 6.00

Incoming: Same read-out for COCCN1CCC(N(C)C(=O)c2cn(C)c(=O)c3[nH]ccc23)CC1 [Example 225] ?
Outgoing: 5.85

Incoming: Same read-out for Cn1cc(C(=O)N2CCC(N3CCCCC3)CC2)c2cc[nH]c2c1=O [Example 59] ?
Outgoing: 6.05

Incoming: Same read-out for Cn1cc(C(=O)N2CCC3(CC2)COC3)c2cc[nH]c2c1=O [Example 73] ?
Outgoing: 5.60
